Source: ChEMBL document CHEMBL4196051

Field: selectivity ratio. Provide a value for each of the molecules that follow.
- Protocol Text: Selectivity index, ratio of CC50 for African green monkey Vero cells to EC50 for chloroquine-resistant Plasmodium falciparum RKL9
- Format: toxicity
- Conditions: read-out: Ratio CC50/EC50

Task: Data request, read-out selectivity ratio, for NS(=O)(=O)c1ccc(N2N=C(c3ccc(F)cc3)CC2c2cn(-c3ccccc3)nc2-c2ccc(F)cc2)cc1 (stereo not given)
Output: > 212

Task: Data request, read-out selectivity ratio, for NS(=O)(=O)c1ccc(N2N=C(c3ccc(O)cc3)CC2c2cn(-c3ccccc3)nc2-c2ccc(F)cc2)cc1 (stereo not given)
Output: 36.9

Task: Data request, read-out selectivity ratio, for Cc1ccc(C2=NN(c3ccc(S(N)(=O)=O)cc3)C(c3cn(-c4ccccc4)nc3-c3ccc(F)cc3)C2)cc1 (stereo not given)
Output: > 73.2

Task: Data request, read-out selectivity ratio, for COc1ccc(C2=NN(c3ccc(S(N)(=O)=O)cc3)C(c3cn(-c4ccccc4)nc3-c3ccccc3)C2)cc1 (stereo not given)
Output: 51.4

Task: Data request, read-out selectivity ratio, for COc1ccc(C2=NN(c3ccc(S(N)(=O)=O)cc3)C(c3cn(-c4ccccc4)nc3-c3ccc(Cl)cc3)C2)cc1 (stereo not given)
Output: 33.2

Task: Data request, read-out selectivity ratio, for COc1ccc(C2=NN(c3ccc(S(N)(=O)=O)cc3)C(c3cn(-c4ccccc4)nc3-c3ccc(F)cc3)C2)cc1 (stereo not given)
Output: > 56.4

Task: Data request, read-out selectivity ratio, for Cc1ccc(C2=NN(c3ccc(S(N)(=O)=O)cc3)C(c3cn(-c4ccccc4)nc3-c3ccc(C)cc3)C2)cc1 (stereo not given)
Output: > 52.8

Task: Data request, read-out selectivity ratio, for NS(=O)(=O)c1ccc(N2N=C(c3ccc(Cl)cc3)CC2c2cn(-c3ccccc3)nc2-c2ccc(Cl)cc2)cc1 (stereo not given)
Output: > 99

Task: Data request, read-out selectivity ratio, for Cc1ccc(-c2nn(-c3ccccc3)cc2C2CC(c3ccccc3)=NN2c2ccc(S(N)(=O)=O)cc2)cc1 (stereo not given)
Output: > 98

Task: Data request, read-out selectivity ratio, for NS(=O)(=O)c1ccc(N2N=C(c3ccc(F)cc3)CC2c2cn(-c3ccccc3)nc2-c2ccccc2)cc1 (stereo not given)
Output: > 225

Task: Data request, read-out selectivity ratio, for COc1ccc(C2=NN(c3ccc(S(N)(=O)=O)cc3)C(c3cn(-c4ccccc4)nc3-c3ccc(OC)cc3)C2)cc1 (stereo not given)
Output: 78.9

Task: Data request, read-out selectivity ratio, for COc1ccc(C2=NN(c3ccc(S(N)(=O)=O)cc3)C(c3cn(-c4ccccc4)nc3-c3ccc(C)cc3)C2)cc1 (stereo not given)
Output: > 46.8

Task: Data request, read-out selectivity ratio, for NS(=O)(=O)c1ccc(N2N=C(c3ccc(O)cc3)CC2c2cn(-c3ccccc3)nc2-c2ccccc2)cc1 (stereo not given)
Output: > 98

Task: Data request, read-out selectivity ratio, for NS(=O)(=O)c1ccc(N2N=C(c3ccc(Cl)cc3)CC2c2cn(-c3ccccc3)nc2-c2ccccc2)cc1 (stereo not given)
Output: > 111

Task: Data request, read-out selectivity ratio, for NS(=O)(=O)c1ccc(N2N=C(c3ccc(Cl)cc3Cl)CC2c2cn(-c3ccccc3)nc2-c2ccccc2)cc1 (stereo not given)
Output: > 162
